Assign solubility to each entry below.
- Test: Assessment of solubility: HT solubility in pION buffer, UV spectrophotometry
- Condition Description: pION system solution buffer, pH 7.4, pH 7.4, aqueous buffer, kinetic from dmso stock, Solubility (pH 7.4), pH 7.4 buffer, 16-19 h incubation, 1.0% DMSO

Query string: I have this compound here, Cc1ccc(OCc2ccc(CNC3CCCCC3)cc2C)c(-c2csc(N3CCC(C(=O)O)CC3)n2)c1 [Compound 45] , and I need its recorded solubility.
Result string: 35 µg/mL

Query string: For the compound shown here, Cc1cc(CN2CCOCC2)ccc1COc1c(Cl)cccc1-c1csc(N2CCC(C(=O)O)CC2)n1 [Compound 62] , give the reported solubility.
Result string: > 65 µg/mL

Query string: Look up solubility: Cc1ccc(OCc2ccc(CN3CCOCC3)cc2C)c(-c2csc(N3C4CCC3CC(C(=O)O)C4)n2)c1 (centres unmarked) [Compound 174]
Result string: > 66 µg/mL

Query string: Look at this compound and give its reported solubility. Cc1cc(CN2CCOCC2)ccc1COc1ccc(C#N)cc1-c1csc(N2C3CCC2CC(C(=O)O)C3)n1 (centres unmarked) [Compound 87]
Result string: > 63 µg/mL

Query string: // query solubility value for entry Cc1cc(C(=O)N2CCCCC2)ccc1COc1ccc(C#N)cc1-c1csc(N2CCC(C(=O)O)C(C(F)(F)F)C2)n1 (centres unmarked) [Compound 148]
Result string: > 61 µg/mL
